- Assay remarks: physchem
- Condition notes: water, solubility at room temperature
This section presents compounds with their documented solubility values.
Readout name: solubility

{"Compound": "C/C=C1/CCC2C3C(CC[C@]12C)[C@@]1(C)CC[C@H](N)CC1[C@@H](O)[C@@H]3O (some centres unmarked) [Compound 28]", "Value": "~30 mg/mL"}
{"Compound": "C=C1CCC2C3C(CC[C@]12C)[C@@]1(C)CC[C@H](N)CC1[C@@H](O)[C@@H]3O (some centres unmarked) [Compound 89]", "Value": "~30 mg/mL"}

* * *

- Tested on: rat mast cell line (RBL-2H3)
- Assay remarks: Antigen-induced release of hexosaminidase from a rat mast cell line (RBL-2H3)
- Type: cell-based
- Condition notes: inhibition of DNP-HSA antigen-induced hexosaminidase release; tested at 0.3, 3, 10 and 30 μM; read-out: Hex IC50
Readout name: IC50 (µM)

{"Compound": "C=C1CCC2C3C(CC[C@]12C)[C@@]1(C)CCC(N)CC1[C@@H](OC)[C@@H]3OC (stereo partly drawn) [Compound 79]", "Value": 18.4}
{"Compound": "CC=C1CCC2C3C(O)C(O)C4CC(NCCCCCO)CCC4(C)C3CCC12C.Cl (stereo not drawn)", "Value": 16.7}
{"Compound": "CC=C1CCC2C3C(CC[C@]12C)[C@@]1(C)CCC(N)CC1[C@@H](O)[C@@H]3O (stereo partly drawn)", "Value": 11}
{"Compound": "CC1(C)CCC2=C1CCC1C2C(O)C(O)C2CC(NCc3ccc(F)c(F)c3)CCC21C.Cl (stereo not drawn)", "Value": 9.4}
{"Compound": "C=C1CCC2C3C(O)C(O)C4CC(NCc5cccc(C(F)(F)F)c5)CCC4(C)C3CCC12C.CC(=O)O (stereo not drawn)", "Value": 10}
{"Compound": "CC=C1CCC2C3C(O)C(O)C4CC(Nc5cccc(C)c5)CCC4(C)C3CCC12C.Cl (stereo not drawn)", "Value": 39.4}
{"Compound": "C=C1CCC2C3C(CC[C@]12C)[C@@]1(C)CCC(N)CC1[C@@H](OC)[C@@H]3OC (stereo partly drawn) [Compound 80]", "Value": 10.7}
{"Compound": "C=C1CCC2C3C(O)C(O)C4CC(NCc5cccnc5)CCC4(C)C3CCC12C.Cl.Cl (stereo not drawn)", "Value": 17.2}
{"Compound": "CC=C1CCC2C3C(O)C(O)C4CC(Nc5ccc(O)cc5)CCC4(C)C3CCC12C.Cl (stereo not drawn)", "Value": 9.7}
{"Compound": "C=C1CCC2C3C(O)C(O)C4CC(NCc5cccc([N+](=O)[O-])c5)CCC4(C)C3CCC12C (stereo not drawn)", "Value": 8.8}
{"Compound": "C=C1CCC2C3C(CC[C@]12C)[C@@]1(C)CC[C@H](N)CC1[C@@H](O)[C@@H]3O (stereo partly drawn)", "Value": 11.5}
{"Compound": "C=C1CCC2C3C(CC[C@]12C)[C@@]1(C)CC[C@@H](NS(=O)(=O)c2ccccc2)CC1[C@@H](O)[C@@H]3O (stereo partly drawn)", "Value": 16.7}
{"Compound": "CC(=O)O.CC=C1CCC2C3C(O)C(O)C4CC(N5CCNCC5)CCC4(C)C3CCC12C (stereo not drawn)", "Value": 14.4}
{"Compound": "CC1(C)CCC2=C1CCC1C2[C@@H](O)[C@H](O)C2C[C@@H](N)CC[C@]12C (stereo partly drawn)", "Value": 10.3}
{"Compound": "CC=C1CCC2C3C(O)C(O)C4CC(NCCO)CCC4(C)C3CCC12C.Cl (stereo not drawn)", "Value": 12.3}

* * *

- Test system: sensitized Brown Norway rats
- Assay remarks: Ovalbumin-induced accumulation of inflammatory cells in lung lavage fluid of sensitized Brown Norway rats
- Type: in vivo, rat
- Condition notes: 1 mg/kg/day for 4 days, p.o., corn oil vehicle; relative to control animals

{"Compound": "COc1ccc(CNC2CCC3(C)C(C2)C(O)C(O)C2C4=C(CCC23)C(C)(C)CC4)cc1OC.Cl (stereo not drawn)", "Subject of test": "sensitized Brown Norway rats", "% inhibition of lymphocytes / %": "−42"}
{"Compound": "CCC1(C)CCC2=C1CCC1C2C(O)C(O)C2CC(NCc3ccccc3)CCC21C.Cl (stereo not drawn) [Compound 147]", "Subject of test": "sensitized Brown Norway rats", "% inhibition of lymphocytes / %": 36}
{"Compound": "C=C1CCC2C3C(O)C(O)C4CC(NCc5cccnc5)CCC4(C)C3CCC12C.Cl.Cl (stereo not drawn)", "Subject of test": "sensitized Brown Norway rats", "% inhibition of lymphocytes / %": "−28"}
{"Compound": "CCC1(C)CCC2=C1CCC1C2C(O)C(O)C2CC(NCc3ccccc3)CCC21C.Cl (stereo not drawn) [Compound 146]", "Subject of test": "sensitized Brown Norway rats", "% inhibition of lymphocytes / %": "−27"}
{"Compound": "C=C1CCC2C3C(CC[C@]12C)[C@@]1(C)CCC(N)CC1[C@@H](O)[C@@H]3O (stereo partly drawn)", "Subject of test": "sensitized Brown Norway rats", "% inhibition of lymphocytes / %": "−7"}
{"Compound": "C=C1CCC2C3C(CC[C@]12C)[C@@]1(C)CC[C@@H](NS(=O)(=O)C(C)C)CC1[C@@H](O)[C@@H]3O (stereo partly drawn)", "Subject of test": "sensitized Brown Norway rats", "% inhibition of lymphocytes / %": 28}
{"Compound": "C=C1CCC2C3C(CC[C@]12C)[C@@]1(C)CC[C@@H](NC(=O)NCCC)CC1[C@@H](O)[C@@H]3O (stereo partly drawn)", "Subject of test": "sensitized Brown Norway rats", "% inhibition of lymphocytes / %": 33}
{"Compound": "C=C1CCC2C3C(CC[C@]12C)[C@@]1(C)CC[C@@H](NC(C)=O)CC1[C@@H](O)[C@@H]3O (stereo partly drawn)", "Subject of test": "sensitized Brown Norway rats", "% inhibition of lymphocytes / %": 21}
{"Compound": "CC=C1CCC2C3C(O)C(O)C4CC(NCCNCCO)CCC4(C)C3CCC12C.Cl.Cl (stereo not drawn)", "Subject of test": "sensitized Brown Norway rats", "% inhibition of lymphocytes / %": "−26"}

* * *

- Assay remarks: physchem
- Condition notes: water, solubility in water
Readout name: solubility

{"Molecule": "C=C1CCC2C3C(CC[C@]12C)[C@@]1(C)CC[C@H](N)CC1[C@@H](O)[C@@H]3O (stereo partly shown)", "Value": "> 100 mg/mL"}

* * *

- Tested on: sensitized Brown Norway rats
- Assay remarks: Ovalbumin-induced accumulation of inflammatory cells in lung lavage fluid of sensitized Brown Norway rats
- Format: in vivo, rat
- Condition notes: 5 mg/kg/day for 4 days, p.o., corn oil vehicle; relative to control animals
Where % inhibition of neutrophils equals or exceeds 40%, the correct label is true; where it does not, the label is false.

{"Compound": "CC(F)=C1CCC2C3C(CC[C@]12C)[C@@]1(C)CCC(N)CC1[C@@H](O)[C@@H]3O (stereo partly drawn) [Compound 95]", "Group": "true"}
{"Compound": "C/C=C1/CCC2C3C(CC[C@]12C)[C@@]1(C)CC[C@H](N)CC1[C@@H](O)[C@@H]3O (stereo partly drawn) [Compound 83]", "Group": "false"}
{"Compound": "CC=C1CCC2C3C(CC[C@]12C)[C@@]1(C)CCC(N)CC1[C@@H](O)[C@@H]3O (stereo partly drawn) [Compound 49]", "Group": "false"}
{"Compound": "C=C1CCC2C3C(CC[C@]12C)[C@@]1(C)CCC(N)CC1[C@@H](O)[C@@H]3O (stereo partly drawn) [Compound 53]", "Group": "true"}
{"Compound": "C=C1CCC2C3C(CC[C@]12C)[C@@]1(C)CC[C@H](N)CC1[C@@H](O)[C@@H]3O (stereo partly drawn) [Compound 89]", "Group": "true"}
{"Compound": "CCC1CCC2C3C(CC[C@]12C)[C@@]1(C)CCC(N)CC1[C@@H](O)[C@@H]3O (stereo partly drawn) [Compound 97]", "Group": "true"}
{"Compound": "C/C=C1/CCC2C3C(CC[C@]12C)[C@@]1(C)CC[C@H](N)CC1[C@@H](O)[C@@H]3O (stereo partly drawn) [Compound 28]", "Group": "true"}
{"Compound": "CC(F)=C1CCC2C3C(CC[C@]12C)[C@@]1(C)CCC(N)CC1[C@@H](O)[C@@H]3O (stereo partly drawn) [Compound 64]", "Group": "true"}

* * *

- System: rat mast cell line (RBL-2H3)
- Assay remarks: Antigen-induced release of hexosaminidase from a rat mast cell line (RBL-2H3)
- Type: cell-based
- Condition notes: inhibition of DNP-HSA antigen-induced hexosaminidase release; tested at 0.3, 3, 10 and 30 μM; read-out: Hex IC50
This section presents compounds with their documented IC50 values.

{"Compound": "C=C1CCC2C3C(CC[C@]12C)[C@@]1(C)CC[C@@H](NC(=O)NCCC)CC1[C@@H](O)[C@@H]3O (some centres unmarked)", "Unit spec": "µM", "IC50": 15}
{"Compound": "CCC1(C)CCC2=C1CCC1C2C(O)C(O)C2CC(N)CCC21C.Cl (centres unmarked)", "Unit spec": "µM", "IC50": 8.6}
{"Compound": "CC=C1CCC2C3C(O)C(O)C4CC(Nc5ccc(S(N)(=O)=O)cc5)CCC4(C)C3CCC12C.Cl (centres unmarked)", "Unit spec": "µM", "IC50": 10.1}
{"Compound": "CC(=O)O.CC=C1CCC2C3C(O)C(O)C4CC(N5CCCC5)CCC4(C)C3CCC12C (centres unmarked)", "Unit spec": "µM", "IC50": 11}
{"Compound": "COc1ccc(CNC2CCC3(C)C(C2)C(O)C(O)C2C4=C(CCC23)C(C)(C)CC4)cc1OC.Cl (centres unmarked)", "Unit spec": "µM", "IC50": 15.9}
{"Compound": "COC1C(OC)C2CC(N)CCC2(C)C2CCC3=C(CCC3(C)C)C12.Cl (centres unmarked)", "Unit spec": "µM", "IC50": 29.2}
{"Compound": "CC=C1CCC2C3C(O)C(O)C4CC(N5CCOCC5)CCC4(C)C3CCC12C.Cl (centres unmarked)", "Unit spec": "µM", "IC50": 9.3}
{"Compound": "CCC1(C)CCC2=C1CCC1C2C(O)C(O)C2CC(NCc3ccccc3)CCC21C.Cl (centres unmarked) [Compound 147]", "Unit spec": "µM", "IC50": 18.1}
